study_target: Glucose transporter (Leishmania mexicana) (UniProt O61059)
measurement_protocol: ST_JUDE_LEISH: Cytotoxicity at 2uM final concentration against transgenic Leishmania Mexicana promastigotes LmGT2 that are glucose transport deficient and complemented with the L. Mexicana glucose transporter 2. Activity is measured by DNA content using SYBR green in vitro
Type: functional
# key: entry, value: inhibition
Report only the number, with the unit % understood.

Example compounds with recorded inhibition:
[[record]]
compound = "COc1ccc(CN(C)CCCOc2ccc(NC(=O)c3cccc4c(=O)c5cccc(F)c5[nH]c34)cc2)cc1OC"
parameter_measured = "inhibition"
test_result = 3.1

[[record]]
compound = "COc1ccc(C=NN=c2cc(C)[nH]c3ccc(C)cc23)c2ccccc12"
parameter_measured = "inhibition"
test_result = -1.89

[[record]]
compound = "COc1ccc(C=NNc2nc(O)cc(-c3ccccc3)n2)cc1OC"
parameter_measured = "inhibition"
test_result = -1.28


Report inhibition from Glucose transporter (Leishmania mexicana) (UniProt O61059) testing of "CCCCc1ccc2[nH]c(NC(=O)OC)nc2c1" 9.56

Report inhibition from Glucose transporter (Leishmania mexicana) (UniProt O61059) testing of OC1CCC(Nc2ccc3ncc(-c4ccc(Cl)cc4)n3n2)CC1 (stereo not drawn) 4.08

Report inhibition from Glucose transporter (Leishmania mexicana) (UniProt O61059) testing of "COc1cccc(CCc2cccc(CNC(C)=O)c2)c1" 5.68

Report inhibition from Glucose transporter (Leishmania mexicana) (UniProt O61059) testing of "CCOC(=O)c1ccc(NC(=O)Nc2cccc(-c3ccc(-c4nc5cc(F)ccc5[nH]4)cc3)c2)cc1" 0.33

// data source = ChEMBL document CHEMBL3433997
